conditions: 313.15 K; 200 kPa; Liquid; Other PVT measurement
reported.metric: mass density (kg/m3)
Express your answer in kg/m3, writing the number without its unit.

Sample answers from the record:
>>> print(df.to_string())
                                   molecule   val
0  CCCCn1cc[n+](C)c1.F[B-](F)(F)F [1-butyl-3-methylimidazolium tetrafluoroborate]  1185
1                             CCO [ethanol]   770
2                       CC#N [acetonitrile]   755

Let's switch to this molecule now.
*Q* Quick one: mass density for O [water] ?
*A* 993
